methodNotes: TOX21_p53_BLA_p2_viability: Viability Assessment in the Tox21 HCT-116 p53 Agonism Beta-lactamase Assay, Phase 2 (AID 2283591);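 further: compound exposure lasted 16 h at 37 °C; actives lower the ATP signal meaning cytotoxicity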
Inconclusive results are not listed. Activity calls are given as the source filed them. How the source made its calls: active means hit-call score of the fitted dose curve at least 0.9, where 1 is the maximum; inconclusive means response in the unintended direction; inactive means score below 0.9.
Outcome codes: active, inactive

COC(=O)c1ccccc1S(=O)(=O)NC(=O)N(C)c1nc(C)nc(OC)n1; inactive
COc1nn(CSP(=S)(OC)OC)c(=O)s1; inactive
O=C(O)COc1ccc(Cl)cc1Cl; inactive
COC(=O)c1ccccc1S(=O)(=O)NC(=O)Nc1nc(C)nc(OC)n1; inactive
CCc1ccc(C(=O)NN(C(=O)c2cc(C)cc(C)c2)C(C)(C)C)cc1; inactive
COC(=O)c1ccccc1CS(=O)(=O)NC(=O)Nc1nc(OC)cc(OC)n1; inactive
CNC(=O)Oc1ccccc1OC(C)C; inactive
CCC(C)(NC(=O)c1cc(Cl)c(C)c(Cl)c1)C(=O)CCl (centres undefined); active
O=C(Nc1ccccc1)Nc1cnns1; inactive

---

methodNotes: BSK_3C_Proliferation: Cell Proliferation Assessment in the BioMAP Diversity Plus: 3C Assay (AID 2283006)
experimentalParameters: primary human endothelial cells (HUVEC)
Activity calls are given as the source filed them. How the source made its calls: active means hit-call score of the fitted dose curve at least 0.9, where 1 is the maximum; inactive means score below 0.9.
Outcome codes: active, inactive

CCc1ccc(C(=O)NN(C(=O)c2cc(C)cc(C)c2)C(C)(C)C)cc1; inactive
COc1nn(CSP(=S)(OC)OC)c(=O)s1; inactive
CC1(C)C(C=C(Cl)Cl)C1C(=O)OC(C#N)c1ccc(F)c(Oc2ccccc2)c1 (stereo not given); active
CCS(=O)(=O)c1cccnc1S(=O)(=O)NC(=O)Nc1nc(OC)cc(OC)n1; inactive
CCC(C)Nc1c([N+](=O)[O-])cc(C(C)(C)C)cc1[N+](=O)[O-] (stereo not given); active
CC(C)OC(=O)Nc1cccc(Cl)c1; inactive
COC(=O)c1ccccc1CS(=O)(=O)NC(=O)Nc1nc(OC)cc(OC)n1; inactive
O=[N+]([O-])c1c(Cl)c(Cl)c(Cl)c(Cl)c1Cl; active
C#CCN1C(=O)COc2cc(F)c(N3C(=O)C4=C(CCCC4)C3=O)cc21; inactive
O=C(Nc1ccccc1)Nc1cnns1; active
Cc1cc(C)nc(NC(=O)NS(=O)(=O)c2ccccc2C(=O)OC2COC2)n1; inactive
CCOc1nc(NC)nc(NC(=O)NS(=O)(=O)c2ccccc2C(=O)OC)n1; inactive
O=C(O)COc1ccc(Cl)cc1Cl; inactive
CNC(=O)Oc1ccccc1OC(C)C; inactive
N#CN; inactive
CN1CSC(=S)N(C)C1; active
CCC(C)(NC(=O)c1cc(Cl)c(C)c(Cl)c1)C(=O)CCl (stereo not given); active
Oc1cc(Cl)ccc1Oc1ccc(Cl)cc1Cl; active
COP(=S)(OC)Oc1ccc([N+](=O)[O-])cc1; inactive
Oc1ccc(Cl)cc1Cc1ccccc1; active
COC(=O)c1ccccc1S(=O)(=O)NC(=O)N(C)c1nc(C)nc(OC)n1; inactive
CNC(=O)Oc1cccc(N=CN(C)C)c1; inactive
COc1cc(OC)nc(NC(=O)NS(=O)(=O)c2cc(NC=O)ccc2C(=O)N(C)C)n1; inactive
C[C@H]1[C@H](c2ccc(Cl)cc2)SC(=O)N1C(=O)NC1CCCCC1; active
CCCN(CCC)c1c([N+](=O)[O-])cc(C(F)(F)F)cc1[N+](=O)[O-]; active

---

methodNotes: CCTE_Shafer_MEA_acute_per_network_burst_spike_number_mean: CCTE's Neural Acute Assay for Average Number of Spikes in a Network Burst, Shafer Lab (AID 2284019)
Active and inactive are the calls of the source. The calls were made as follows: active = hit-call score of the fitted dose curve at least 0.9, where 1 is the maximum; inactive = score below 0.9.
Outcome codes: active, inactive

C[C@H]1[C@H](c2ccc(Cl)cc2)SC(=O)N1C(=O)NC1CCCCC1; active
CC(C)OC(=O)Nc1cccc(Cl)c1; inactive
Clc1ccccc1-c1nnc(-c2ccccc2Cl)nn1; inactive
N#Cc1c(Cl)c(Cl)c(Cl)c(C#N)c1Cl; inactive
CCC(C)Nc1c([N+](=O)[O-])cc(C(C)(C)C)cc1[N+](=O)[O-] (configuration not stated); inactive
CC(C)N(C(=O)COc1nnc(C(F)(F)F)s1)c1ccc(F)cc1; inactive
O=S(=O)(O)C(F)(F)C(F)(F)C(F)(F)C(F)(F)C(F)(F)C(F)(F)C(F)(F)C(F)(F)F; inactive

---

assaySystem: Nuclear receptor subfamily 1 group I member 2 (Mus musculus) (UniProt O54915)
Sequence (O54915 whole entry, looked up): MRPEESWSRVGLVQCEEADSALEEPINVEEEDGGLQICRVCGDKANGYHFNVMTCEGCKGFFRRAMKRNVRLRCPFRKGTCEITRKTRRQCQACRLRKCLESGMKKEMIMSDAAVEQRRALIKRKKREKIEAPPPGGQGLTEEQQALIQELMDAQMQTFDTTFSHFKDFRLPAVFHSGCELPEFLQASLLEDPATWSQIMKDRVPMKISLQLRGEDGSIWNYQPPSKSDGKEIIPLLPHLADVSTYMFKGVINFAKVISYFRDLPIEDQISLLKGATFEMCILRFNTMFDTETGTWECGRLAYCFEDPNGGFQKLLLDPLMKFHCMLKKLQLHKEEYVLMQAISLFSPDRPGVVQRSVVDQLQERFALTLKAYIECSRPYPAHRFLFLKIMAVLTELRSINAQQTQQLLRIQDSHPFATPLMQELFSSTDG
methodNotes: ATG_mPXR_XSP2: Attagene TRANS-FACTORIAL Multi-Species (XSP1) HepG2 Assay for mouse Pregnane X Receptor (PXR) (AID 2283831)
Results filed as inconclusive are left out. Active and inactive are the calls of the source. Rule for the calls: active = hit-call score of the fitted dose curve at least 0.9, where 1 is the maximum; inconclusive = response in the unintended direction; inactive = score below 0.9.
Outcome codes: T = active, F = inactive

Oc1ccc(Cl)cc1Cc1ccccc1; F
CCCN(CCOc1c(Cl)cc(Cl)cc1Cl)C(=O)n1ccnc1; T
O=S1OCC2C(CO1)C1(Cl)C(Cl)=C(Cl)C2(Cl)C1(Cl)Cl (configuration not stated); F
CCOCN(C(=O)CCl)c1c(C)cccc1CC; T
CCCN(CCC)c1c([N+](=O)[O-])cc(C(F)(F)F)cc1[N+](=O)[O-]; T
CC1(C)C(C=C(Cl)Cl)C1C(=O)OC(C#N)c1ccc(F)c(Oc2ccccc2)c1 (configuration not stated); T
COP(=S)(OC)Oc1ccc(SC)c(C)c1; T

---

Read-out: Cytochrome P450 4A22 (Homo sapiens)
methodNotes: LTEA_HepaRG_CYP4A22: Life Technologies and Expression Analysis (LTEA) Assay for Cytochrome P450 4A22 (CYP4A22) using HepaRG (AID 2283495)
experimentalParameters: mRNA level, 48 h; actives raise or lower the signal
Active and inactive are the calls of the source. How the source made its calls: active means hit-call score of the fitted dose curve at least 0.9, where 1 is the maximum; inactive means score below 0.9.
Outcome codes: active, inactive

OCCOc1ccccc1; inactive
CCCN(CCC)c1c([N+](=O)[O-])cc(C(F)(F)F)cc1[N+](=O)[O-]; inactive
CCOC1Oc2ccc(OS(C)(=O)=O)cc2C1(C)C (stereo not drawn); active

---

Read-out: Interferon-gamma inducible Protein 10 (IP10), CXCL10 (gene 3627)
methodNotes: BSK_KF3CT_IP10: BioMAP Diversity Plus: KF3CT Assay for Interferon-gamma inducible Protein 10 (IP10) Biomarker Activity (AID 2283068)
experimentalParameters: primary human keratinocytes with fibroblasts; actives raise or lower the signal
Description: BSK_KF3CT is a cell-based, multiplexed-readout assay that uses keratinocytes and foreskin fibroblasts, a human skin primary cell co-culture, with measurements taken at 24 hours after chemical dosing in a 96-well plate.BSK_KF3CT_IP10 is an assay component measured in the BSK_KF3CT assay. It measures IP-10 antibody related to regulation of gene expression using ELISA technology.Data from the assay component BSK_KF3CT_IP10 was analyzed into 1 assay endpoint. […]
Calls of active or inactive are those of the source. How the source made its calls: active means hit-call score of the fitted dose curve at least 0.9, where 1 is the maximum; inactive means score below 0.9.
quantityKind: AC50

CCc1ccc(C(=O)NN(C(=O)c2cc(C)cc(C)c2)C(C)(C)C)cc1; inactive
Cc1cc(C)nc(NC(=O)NS(=O)(=O)c2ccccc2C(=O)OC2COC2)n1; inactive
COP(=S)(OC)Oc1ccc(SC)c(C)c1; inactive
O=C(O)CCCOc1ccc(Cl)cc1Cl; 23.6 µM (active)
O=C(NC(=O)c1c(F)cccc1F)Nc1ccc(OC(F)(F)C(F)OC(F)(F)F)c(Cl)c1 (stereo not given); inactive
CC[C@H](C)[C@H]1O[C@]2(C=C[C@@H]1C)C[C@@H]1C[C@@H](C/C=C(\C)[C@@H](O[C@H]3C[C@H](OC)[C@@H](O[C@H]4C[C@H](OC)[C@@H](O)[C@H](C)O4)[C@H](C)O3)[C@@H](C)/C=C/C=C3\CO[C@@H]4[C@H](O)C(C)=C[C@@H](C(=O)O1)[C@]34O)O2 (tested in a mixture with another compound); 12.5 µM (active)
CC(C)N(C(=O)COc1nnc(C(F)(F)F)s1)c1ccc(F)cc1; 30.8 µM (active)
O=[N+]([O-])/N=C1\NCCN1Cc1ccc(Cl)nc1; inactive
CCOC1Oc2ccc(OS(C)(=O)=O)cc2C1(C)C (stereo not given); inactive
CNC(=O)/C=C(\C)OP(=O)(OC)OC; inactive

---

Read-out: CD40, CD40 (gene 958)
methodNotes: BSK_LPS_CD40: BioMAP Diversity Plus: LPS Assay for CD40 Biomarker Activity (AID 2283076)
experimentalParameters: primary human HUVEC with PBMC; actives raise or lower the signal
Calls of active or inactive are those of the source. The calls were made as follows: active = hit-call score of the fitted dose curve at least 0.9, where 1 is the maximum; inactive = score below 0.9.
Outcome codes: active, inactive

CCC(C)(NC(=O)c1cc(Cl)c(C)c(Cl)c1)C(=O)CCl (stereo unspecified); active
O=C(O)CCCOc1ccc(Cl)cc1Cl; inactive
CC(C)OC(=O)Nc1cccc(Cl)c1; inactive
COP(=S)(OC)Oc1ccc(SC)c(C)c1; inactive
CNC(=O)CSP(=S)(OC)OC; inactive
O=[N+]([O-])/N=C1\NCCN1Cc1ccc(Cl)nc1; inactive
CC1(c2ccc(Oc3ccccc3)cc2)OC(=O)N(Nc2ccccc2)C1=O (stereo unspecified); active
O=S(=O)(O)C(F)(F)C(F)(F)C(F)(F)C(F)(F)C(F)(F)C(F)(F)C(F)(F)C(F)(F)F; inactive
CCC(C)(C)C(=O)OC1=C(c2ccc(Cl)cc2Cl)C(=O)OC12CCCCC2; active
C[C@H]1[C@H](c2ccc(Cl)cc2)SC(=O)N1C(=O)NC1CCCCC1; inactive
CCOc1nc(NC)nc(NC(=O)NS(=O)(=O)c2ccccc2C(=O)OC)n1; inactive
CNC(=O)Oc1ccccc1OC(C)C; inactive
O=[N+]([O-])c1c(Cl)c(Cl)c(Cl)c(Cl)c1Cl; active
ClC1C(Cl)C(Cl)C(Cl)C(Cl)C1Cl (stereo unspecified); inactive
OCCOc1ccccc1; inactive
CC1(C)C(C=C(Cl)Cl)C1C(=O)OC(C#N)c1ccc(F)c(Oc2ccccc2)c1 (stereo unspecified); inactive
CN1CSC(=S)N(C)C1; inactive
CC[C@H](C)[C@H]1O[C@]2(C=C[C@@H]1C)C[C@@H]1C[C@@H](C/C=C(\C)[C@@H](O[C@H]3C[C@H](OC)[C@@H](O[C@H]4C[C@H](OC)[C@@H](O)[C@H](C)O4)[C@H](C)O3)[C@@H](C)/C=C/C=C3\CO[C@@H]4[C@H](O)C(C)=C[C@@H](C(=O)O1)[C@]34O)O2 (tested in a mixture with another compound); active
[2H]C1([2H])[n+]2ccccc2-c2cccc[n+]2C1([2H])[2H]; inactive
O=C1c2ccccc2C(=O)N1SC(Cl)(Cl)Cl; inactive
CCCN(CCOc1c(Cl)cc(Cl)cc1Cl)C(=O)n1ccnc1; active
CC(C)N(C(=O)COc1nnc(C(F)(F)F)s1)c1ccc(F)cc1; inactive
Cc1cc(C)nc(NC(=O)NS(=O)(=O)c2ccccc2C(=O)OC2COC2)n1; inactive
CCCN(CCC)c1c([N+](=O)[O-])cc(C(F)(F)F)cc1[N+](=O)[O-]; active
COP(=S)(OC)Oc1ccc([N+](=O)[O-])cc1; active
CCOC1Oc2ccc(OS(C)(=O)=O)cc2C1(C)C (stereo unspecified); inactive
CCc1ccc(C(=O)NN(C(=O)c2cc(C)cc(C)c2)C(C)(C)C)cc1; inactive
CCN(CC)C(=O)SCc1ccc(Cl)cc1; inactive
COC(=O)c1ccccc1CS(=O)(=O)NC(=O)Nc1nc(OC)cc(OC)n1; inactive
COC(=O)c1ccccc1S(=O)(=O)NC(=O)Nc1nc(C)nc(OC)n1; inactive
N#Cc1c(Cl)c(Cl)c(Cl)c(C#N)c1Cl; active
